growth inhibition for assorted compounds
- test name: NCI Yeast Anticancer Drug Screen. Data for the sgs1 mgt1 strain (AID 161);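 further: 0% = growth of cultures given vehicle only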
- assay setup: S. cerevisiae sgs1 mgt1 strain, at 50.0 µM (retest, dose inferred, filed as 5.0), hits give high values
Compounds without any hit were thinned out: in the full panel of roughly 79,000, 15% have a hit.
Report as a plain number; the unit % is understood.

// known answers, use as guide
compound=CCCCCCCCCC(=O)[O][Hg][c]1ccccc1 reported_property="growth inhibition" numeric_value=100
compound="COc1cc(N(CC(C)Br)CC(C)Br)ccc1N=Nc1ccccc1C(=O)O (stereo not drawn)" reported_property="growth inhibition" numeric_value=95
compound=ClCC[Se](Cl)(Cl)c1ccccc1 reported_property="growth inhibition" numeric_value=48
compound="CC(=O)OCC12CC(O)C(C)=CC1OC1C(O)C(OC(C)=O)C2(C)C12CO2 (stereo not drawn)" reported_property="growth inhibition" numeric_value=36
compound=O=C(CBr)Nc1ccccc1 reported_property="growth inhibition" numeric_value=99
compound=COc1ccc(C[C@H]2NC[C@H](O)[C@H]2OC(C)=O)cc1 reported_property="growth inhibition" numeric_value=99
compound=O=c1oc2cc(O)ccc2c(O)c1C(c1ccc(/C=C/c2ccccc2)cc1)c1c(O)c2ccc(O)cc2oc1=O reported_property="growth inhibition" numeric_value=97
compound="CC1(OO)CCC2CC1C2(C)C (stereo not drawn)" reported_property="growth inhibition" numeric_value=68
compound=Cc1nnc2n1-c1ccc(Cl)cc1C(c1ccccc1)=[N+]([O-])C2 reported_property="growth inhibition" numeric_value=3
compound="[O]=[Sb]([OH])([OH])[c]1ccc(NC2OC(CO)C(O)C(O)C2O)cc1 (stereo not drawn)" reported_property="growth inhibition" numeric_value=-20

**Q:** Using the record for CN1CCN(c2ccc3nc(-c4ccc5nc(CCCc6ccc(N(CCCl)CCCl)cc6)[nH]c5c4)[nH]c3c2)CC1 , report its growth inhibition.
**A:** 99

**Q:** Using the record for Cc1ccc(NC(=O)CBr)cc1 , report its growth inhibition.
**A:** 97

**Q:** Using the record for S=P(Nc1ccc(Cl)cc1)(Nc1ccc(Cl)cc1)c1ccccc1 , report its growth inhibition.
**A:** 65

**Q:** Using the record for O=C1C(=O)C(Br)(Br)C(Br)=C1Br , report its growth inhibition.
**A:** 5

**Q:** Using the record for O=C1C(Cl)=C(Cl)C(=O)c2ccccc21 , report its growth inhibition.
**A:** 97

**Q:** Using the record for O=C1c2ccccc2C[CH]1[Hg][Cl] (stereo not drawn) , report its growth inhibition.
**A:** 99
